Where these numbers come from: patent US9751869B2

- measured-on: LXRβ (Homo sapiens, UniProt P55055)
- Construct: Co-transfection expression plasmids, comprising full-length LXRα (pCMX-h LXRα or LXRβ (pCMX-hLXRβ)); expressed in transfected cells; host or cells: CV-1 African green monkey kidney cells, transient transfection with pCMX-hLXRβ
- assay-overview: LXR/LXRE co-transfection assay (luciferase reporter) in CV-1 cells, LXRβ
- Format: cell-based
- assay-conditions: CV-1 cells, relative to maximum response of high control N-(3-((4-fluorophenyl)-(naphthalene-2-sulfonyl)amino)propyl)-2,2-dimethylpropionamide, read-out: LXRbeta % EFFICACY
metric-name: Emax (%)

Solved cases (4 shown):
molecule	measured-on	readout-value
Cn1nc(C(F)(F)F)cc1-c1ccc(-c2cccc(S(C)(=O)=O)c2)cc1-n1nncc1-c1ccc(OC(F)(F)F)cc1	LXRβ (Homo sapiens, UniProt P55055)	99
COc1ncc(-c2oc(C)nc2-c2cc(-c3cc(F)c(CO)c(S(C)(=O)=O)c3)ccc2-n2ccc(C(F)(F)F)n2)cc1F	LXRβ (Homo sapiens, UniProt P55055)	73
Cc1c(C(C)(F)F)nn(C)c1-c1ccc(-c2ccc(CO)c(S(C)(=O)=O)c2)cc1-n1nncc1-c1ccc(OC(F)(F)F)cc1	LXRβ (Homo sapiens, UniProt P55055)	104
Cc1nc(-c2ccc(C(F)(F)F)cc2)c(-c2cc(-c3cccc(S(C)(=O)=O)c3)ccc2-n2cc(Cl)c(C(F)(F)F)n2)o1	LXRβ (Homo sapiens, UniProt P55055)	49

1. Cc1nc(-c2ccc3c(c2)OC(F)(F)O3)c(-c2cc(-c3cccc(S(C)(=O)=O)c3)ccc2-c2cc(-c3nnco3)nn2C)o1
2. Cc1nc(-c2cc(F)c(OC(F)F)c(F)c2)c(-c2cc(-c3cc(F)c(CO)c(S(C)(=O)=O)c3)ccc2-n2ccc(C(F)(F)F)n2)o1
3. Cc1nc(-c2ccc3c(c2)OC(F)(F)O3)c(-c2cc(-c3cc(F)c(CO)c(S(C)(=O)=O)c3)ccc2-c2cc(C(=O)NC3CC3)nn2C)o1
Q) Exam item: list the entries in increasing order of Emax. Thanks in advance for listing the labels in the requested order.
A) 3, 1, 2
(3: 30%, 1: 52%, 2: 76%)

====

- measured-on: LXRβ (Homo sapiens)
- Construct: Co-transfection expression plasmids, comprising full-length LXRα (pCMX-h LXRα or LXRβ (pCMX-hLXRβ)); expressed in transfected cells; host or cells: CV-1 African green monkey kidney cells, transient transfection with pCMX-hLXRβ
- Sequence (P55055 1-460): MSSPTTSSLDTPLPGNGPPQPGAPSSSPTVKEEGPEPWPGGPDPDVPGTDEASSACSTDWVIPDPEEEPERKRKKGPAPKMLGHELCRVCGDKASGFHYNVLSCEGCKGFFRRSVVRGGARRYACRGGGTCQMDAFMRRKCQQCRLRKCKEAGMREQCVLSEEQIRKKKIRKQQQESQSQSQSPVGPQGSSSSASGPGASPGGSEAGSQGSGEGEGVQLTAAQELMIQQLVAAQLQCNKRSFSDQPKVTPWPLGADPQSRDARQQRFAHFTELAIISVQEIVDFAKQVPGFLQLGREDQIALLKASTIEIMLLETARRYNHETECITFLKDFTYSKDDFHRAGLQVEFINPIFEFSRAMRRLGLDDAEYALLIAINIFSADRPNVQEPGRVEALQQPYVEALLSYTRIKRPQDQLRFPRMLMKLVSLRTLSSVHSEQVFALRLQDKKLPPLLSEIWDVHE
- Sequence (P19793 1-462 partner): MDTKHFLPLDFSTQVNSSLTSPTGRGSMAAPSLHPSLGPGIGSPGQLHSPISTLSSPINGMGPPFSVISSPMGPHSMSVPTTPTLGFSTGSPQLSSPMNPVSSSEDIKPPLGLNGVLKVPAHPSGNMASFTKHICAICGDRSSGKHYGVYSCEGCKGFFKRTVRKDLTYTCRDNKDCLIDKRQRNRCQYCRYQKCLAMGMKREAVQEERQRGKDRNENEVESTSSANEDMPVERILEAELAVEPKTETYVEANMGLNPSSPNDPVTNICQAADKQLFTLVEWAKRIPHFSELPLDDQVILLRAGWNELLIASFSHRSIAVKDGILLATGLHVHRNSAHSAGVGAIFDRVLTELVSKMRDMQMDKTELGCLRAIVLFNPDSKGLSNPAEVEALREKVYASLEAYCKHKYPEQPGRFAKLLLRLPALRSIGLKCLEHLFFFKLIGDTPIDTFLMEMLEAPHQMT
- assay-overview: LXR/LXRE co-transfection assay (luciferase reporter) in CV-1 cells, LXRβ
- Assay type: cell-based
- assay-conditions: CV-1 cells transfected with pCMX-hLXRβ and LXREx1-Tk-Luciferase, 20 hours incubation, read-out: LXRbeta agonism EC50
pEC50: −log10 of the molar value.
metric-name: pEC50

A. CCC(F)(F)c1cc(-c2ccc(-c3cc(F)c(CO)c(S(C)(=O)=O)c3)cc2-n2nncc2-c2ccc(OC(F)(F)F)cc2)n(C)n1
B. Cc1nc(-c2ccc3c(c2)OC(F)(F)O3)c(-c2cc(-c3cc(F)c(CO)c(S(C)(=O)=O)c3)ccc2-c2cc(CO)nn2C)o1
Q) Hi there! Just curious which has the higher pEC50 between A and B . Please reply using the label of the selected record.
A) A
(A: 7.59, B: 6.55)

====

- measured-on: LXRβ (Homo sapiens, UniProt P55055)
- Construct: Co-transfection expression plasmids, comprising full-length LXRα (pCMX-h LXRα or LXRβ (pCMX-hLXRβ)); expressed in transfected cells; host or cells: CV-1 African green monkey kidney cells, transient transfection with pCMX-hLXRβ
- assay-overview: LXR/LXRE co-transfection assay (luciferase reporter) in CV-1 cells, LXRβ
- Assay type: cell-based
- assay-conditions: CV-1 cells, relative to maximum response of high control N-(3-((4-fluorophenyl)-(naphthalene-2-sulfonyl)amino)propyl)-2,2-dimethylpropionamide, read-out: LXRbeta % EFFICACY
metric-name: Emax (%)

compound	Emax (%)
Cc1nc(-c2ccc(C(F)(F)F)cc2)c(-c2cc(-c3cc(F)c(CO)c(S(C)(=O)=O)c3)ccc2-n2cc(Cl)c(C(F)(F)F)n2)o1 [Example 438]	70
Cc1nc(-c2ccc(OC(F)(F)F)cc2)c(-c2cc(-c3cccc(S(C)(=O)=O)c3)ccc2-n2nc(C(F)(F)F)cc2C2CC2)o1 [Example 324]	44
Cn1nc(C(=O)NC(C)(C)C#N)cc1-c1ccc(-c2cccc(S(C)(=O)=O)c2)cc1-n1nncc1-c1ccc(OC(F)(F)F)cc1 [Example 37]	47

A. Cc1nc(-c2cc(-c3cccc(S(C)(=O)=O)c3)ccc2-n2nc(C(F)(F)F)cc2C)c(-c2ccc(OC(F)F)cc2)o1 [Example 383]
B. Cc1nc(-c2ccc3c(c2)OC(F)(F)O3)c(-c2cc(-c3cccc(S(C)(=O)=O)c3)ccc2-c2cc(C(=O)NCC(F)(F)F)nn2C)o1 [Example 111]
C. Cc1nc(-c2ccc3c(c2)OC(F)(F)O3)c(-c2cc(-c3cc(F)c(CO)c(S(C)(=O)=O)c3)ccc2-c2cc(C(F)(F)c3nnc[nH]3)nn2C)o1 [Example 52]
Q) With regard to Emax, arrange the entries in ascending order, please. List the labels according to the requested ordering.
A) C, B, A
(C: 30%, B: 51%, A: 76%)

P. Cc1nc(-c2ccc(OC(F)(F)F)cc2)c(-c2cc(-c3cccc(C(C)(C)C(N)=O)c3)ccc2-n2ccc(C(F)(F)F)n2)o1 [Example 343]
Q. Cn1nc(C(F)(F)C(C)(C)O)cc1-c1ccc(-c2cccc(S(C)(=O)=O)c2)cc1-n1nncc1-c1ccc(Cl)cc1 [Example 31]
Q) I'd appreciate it if you could identify which of P and Q has the greater Emax. Pick one; state its label.
A) P

P. Cc1nc(-c2cc(-c3cccc(C(C)(C)C(N)=O)c3)ccc2-n2nc(C(F)(F)F)cc2Cl)c(-c2ccc(OC(F)(F)F)cc2)o1 [Example 404]
Q. Cc1cc(C(F)(F)F)nn1-c1ccc(-c2cccc(S(C)(=O)=O)c2)cc1-n1nncc1-c1ccc(OC(F)(F)F)cc1 [Example 300]
R. Cc1nc(-c2ccc(OC(F)(F)F)cc2)c(-c2cc(-c3cc(F)c(CO)c(S(C)(=O)=O)c3)ccc2-n2cc(Cl)c(C(C)(C)O)n2)o1 [Example 443]
Q) Sort (3 compounds) by Emax: min first. Please express your ranking as an ordered list of the labels.
A) R, P, Q
(R: 35%, P: 67%, Q: 99%)

I. Cc1nc(-c2ccc(OC(F)(F)F)cc2)c(-c2cc(-c3cccc(S(C)(=O)=O)c3)ccc2-c2cc(C(F)(F)F)nn2C)o1 [Example 53]
II. CN(C)C(=O)c1cc(-c2ccc(-c3cccc(S(C)(=O)=O)c3)cc2-n2nncc2-c2ccc(OC(F)(F)F)cc2)n(C)n1 [Example 38]
III. Cc1nc(-c2ccc(OC(F)(F)F)cc2)c(-c2cc(-c3cc(F)c(CO)c(S(C)(=O)=O)c3)ccc2-n2ccc(C(=O)NCC(F)(F)F)n2)o1 [Example 372]
Q) Provide the items ranked by increasing Emax. Write the labels in rank order as requested.
A) III, II, I
